Below, each entry is listed with its recorded IC50.
target: Ba/F3 cells with EGFR exon 20 ASV Ins V769_D770 (Homo sapiens, UniProt P00533, INS769ASV); construct: expressed in transfected cells; host or cells: Ba/F3 (murine pro-B cells), retroviral transduction, puromycin selection, IL3-independent pool; assay: EGFR activity: Ba/F3 cell viability (CellTiter-Glo, 72 h), EGFR exon 20 ASV insertion; format: cell-based; details: EGFR exon 20 ASV Ins V769_D770, cell viability, read-out: BaF3 ASV IC50
Sequence (P00533 with tags, fused parts or gaps INS769ASV): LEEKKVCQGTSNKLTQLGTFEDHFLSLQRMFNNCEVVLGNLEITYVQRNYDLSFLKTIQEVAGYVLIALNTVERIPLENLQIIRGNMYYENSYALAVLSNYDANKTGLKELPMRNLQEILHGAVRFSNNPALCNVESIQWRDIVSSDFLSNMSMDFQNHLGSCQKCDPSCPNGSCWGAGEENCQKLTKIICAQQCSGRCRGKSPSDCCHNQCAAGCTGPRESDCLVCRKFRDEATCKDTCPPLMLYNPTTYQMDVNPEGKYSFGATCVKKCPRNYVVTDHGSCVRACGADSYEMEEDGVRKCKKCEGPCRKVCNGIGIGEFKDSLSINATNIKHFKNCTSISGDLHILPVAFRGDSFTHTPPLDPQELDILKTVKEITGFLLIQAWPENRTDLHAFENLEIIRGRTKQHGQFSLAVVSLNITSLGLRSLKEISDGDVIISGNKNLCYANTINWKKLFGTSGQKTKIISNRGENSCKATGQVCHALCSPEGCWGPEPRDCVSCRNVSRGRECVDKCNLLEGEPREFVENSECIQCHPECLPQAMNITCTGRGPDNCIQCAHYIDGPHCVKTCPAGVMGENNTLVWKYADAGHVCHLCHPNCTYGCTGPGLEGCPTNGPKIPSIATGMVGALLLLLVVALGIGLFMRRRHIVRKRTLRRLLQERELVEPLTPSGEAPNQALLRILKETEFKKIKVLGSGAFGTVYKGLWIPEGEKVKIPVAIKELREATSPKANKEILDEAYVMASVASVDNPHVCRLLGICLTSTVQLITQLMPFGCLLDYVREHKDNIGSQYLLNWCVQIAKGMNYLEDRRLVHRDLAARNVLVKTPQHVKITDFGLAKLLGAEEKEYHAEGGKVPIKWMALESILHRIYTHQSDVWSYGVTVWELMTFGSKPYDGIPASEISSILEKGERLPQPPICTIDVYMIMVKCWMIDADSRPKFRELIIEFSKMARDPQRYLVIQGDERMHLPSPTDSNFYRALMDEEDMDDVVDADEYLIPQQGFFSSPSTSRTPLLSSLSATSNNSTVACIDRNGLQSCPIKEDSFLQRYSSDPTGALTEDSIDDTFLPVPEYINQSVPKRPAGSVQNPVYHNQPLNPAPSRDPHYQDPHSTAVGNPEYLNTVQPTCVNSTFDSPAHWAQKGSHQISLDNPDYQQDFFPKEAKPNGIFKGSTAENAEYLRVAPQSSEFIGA

Given Smiles	Assay Target	IC50
C=CC(=O)N1CC(C)(C)C[C@@H]1COc1cnccc1-c1[nH]c2c(c1Nc1cccc(Cl)c1OC)C(=O)NCC2	Ba/F3 cells with EGFR exon 20 ASV Ins V769_D770 (Homo sapiens, UniProt P00533, INS769ASV)	< 100 nM
COc1c(Cl)cccc1Nc1c(-c2ccncc2C#CC(C)(C)OC)[nH]c2c1C(=O)NCC2	Ba/F3 cells with EGFR exon 20 ASV Ins V769_D770 (Homo sapiens, UniProt P00533, INS769ASV)	100 to 1000 nM
Cc1c(F)cccc1Nc1c(-c2ccncc2C#CCN2CCOCC2)[nH]c2c1C(=O)NCC2	Ba/F3 cells with EGFR exon 20 ASV Ins V769_D770 (Homo sapiens, UniProt P00533, INS769ASV)	> 1000 nM

Problem: Could you tell me which IC50 is on file for `COc1ccccc1C#Cc1cnccc1-c1[nH]c2c(c1Nc1cccc(F)c1C)C(=O)NCC2` ?
Solution: < 100 nM

Problem: Could you tell me which IC50 is on file for `COc1c(Cl)cccc1Nc1c(-c2ccncc2C#C[C@@]2(C)CCCN2C(=O)C#CCN(C)C)[nH]c2c1C(=O)NCC2` ?
Solution: < 100 nM

Problem: Could you tell me which IC50 is on file for `C=CC(=O)N1CCN(C)C[C@@H]1COc1cnccc1-c1[nH]c2c(c1Nc1cccc(Cl)c1OC)C(=O)NCC2` ?
Solution: 100 to 1000 nM

Problem: Could you tell me which IC50 is on file for `COc1c(F)cccc1Nc1c(-c2ccncc2C#C[C@@]2(C)CCCN2C(=O)/C=C/CN2CC(F)(F)C2)[nH]c2c1C(=O)NCC2` ?
Solution: 100 to 1000 nM
